# Target Of Assay: Met kinase (Homo sapiens)
# Sequence (P08581 25-1390): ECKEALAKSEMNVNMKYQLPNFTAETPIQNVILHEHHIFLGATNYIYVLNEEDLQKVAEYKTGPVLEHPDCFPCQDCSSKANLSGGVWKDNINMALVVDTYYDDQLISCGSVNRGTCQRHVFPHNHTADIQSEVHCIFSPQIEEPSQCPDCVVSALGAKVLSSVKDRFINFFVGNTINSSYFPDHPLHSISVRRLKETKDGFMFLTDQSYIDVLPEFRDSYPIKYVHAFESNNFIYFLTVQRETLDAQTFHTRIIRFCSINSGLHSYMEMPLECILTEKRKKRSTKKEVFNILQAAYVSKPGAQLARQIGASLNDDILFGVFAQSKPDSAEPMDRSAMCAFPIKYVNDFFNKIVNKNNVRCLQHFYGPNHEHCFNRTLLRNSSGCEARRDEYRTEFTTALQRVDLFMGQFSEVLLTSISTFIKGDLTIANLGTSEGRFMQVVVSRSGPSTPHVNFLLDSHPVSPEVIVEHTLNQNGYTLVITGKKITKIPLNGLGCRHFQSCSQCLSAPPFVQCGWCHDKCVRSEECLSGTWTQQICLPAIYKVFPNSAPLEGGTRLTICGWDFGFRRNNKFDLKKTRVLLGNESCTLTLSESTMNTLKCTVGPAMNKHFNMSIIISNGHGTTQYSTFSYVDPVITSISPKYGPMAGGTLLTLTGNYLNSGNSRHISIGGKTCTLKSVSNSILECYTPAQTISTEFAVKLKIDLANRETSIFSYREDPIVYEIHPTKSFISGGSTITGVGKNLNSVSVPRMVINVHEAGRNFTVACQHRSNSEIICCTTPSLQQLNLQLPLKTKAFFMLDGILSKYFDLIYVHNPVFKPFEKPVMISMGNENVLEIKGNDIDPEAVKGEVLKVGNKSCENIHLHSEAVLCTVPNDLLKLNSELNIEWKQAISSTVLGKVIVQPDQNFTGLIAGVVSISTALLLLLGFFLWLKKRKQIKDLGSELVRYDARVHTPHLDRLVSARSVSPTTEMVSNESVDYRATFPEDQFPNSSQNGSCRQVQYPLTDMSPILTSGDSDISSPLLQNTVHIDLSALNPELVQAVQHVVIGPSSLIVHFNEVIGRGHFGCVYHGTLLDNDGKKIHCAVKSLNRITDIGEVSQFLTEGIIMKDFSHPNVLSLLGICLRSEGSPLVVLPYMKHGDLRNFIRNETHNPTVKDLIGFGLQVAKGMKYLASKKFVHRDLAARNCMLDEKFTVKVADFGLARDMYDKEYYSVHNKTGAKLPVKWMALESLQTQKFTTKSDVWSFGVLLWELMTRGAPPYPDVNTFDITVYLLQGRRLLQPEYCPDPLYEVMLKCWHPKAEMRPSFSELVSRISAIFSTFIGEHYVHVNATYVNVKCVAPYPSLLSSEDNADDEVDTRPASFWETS
# Assay Details: Met kinase inhibition (cell)
# Type: cell-based
The compounds listed here are annotated with their IC50.
Measured Metric: IC50

| Input Smiles | Measured Result |
| --- | --- |
| CN1CCN(CCOc2cnc(-c3cccc(Cc4nnc5ccc(-c6cnn(C)c6)nn45)c3)nc2)CC1 | 1 to 100 nM |
| COc1cnc(-c2cccc(Cc3nnc4ccc(-c5cnn(C)c5)nn34)c2)nc1 | 1 to 100 nM |
| Cc1ccc2nnc(Cc3cccc(-c4ncc(Br)cn4)c3)n2n1 | 100 to 10000 nM |
| N#Cc1cccc(-c2ccc3nnc(C(F)(F)c4cccc(-c5ncc(N6CCNCC6)cn5)c4)n3n2)c1 | 1 to 100 nM |
| Cc1ccc2nnc(C(F)(F)c3cccc(-c4ncc(N5CCN(C)CC5)cn4)c3)n2n1 | 1 to 100 nM |
